# assayProcedure: ATG_BRE_CIS: Attagene CIS-FACTORIAL HepG2 Assay for human Bone Morphogenetic Protein (BMP) Response Element (BRE) (AID 2282933)
# conditionDetails: HepG2 BMP response element reporter, Attagene transcription factor profiling; actives raise or lower the signal
Active and inactive are the calls of the source. The calls were made as follows: active = hit-call score of the fitted dose curve at least 0.9, where 1 is the maximum; inactive = score below 0.9.
measuredParameter: outcome

Example results:
COC(OC(C)=O)c1ccccc1 (configuration not stated) = inactive
FC(F)(F)C(F)(F)C(F)(F)C(F)(F)C(F)(F)C(F)(F)C(F)(F)C(F)(F)CCS = inactive
O=S(=O)(O)c1ccc2ccccc2c1 = inactive
Nc1ccc(Oc2cccc(Oc3ccc(N)cc3)c2)cc1 = inactive
Cc1ccc(S(=O)(=O)NCl)cc1 = inactive
C=CC(=O)OCC(F)(F)C(F)(F)C(F)(F)C(F)(F)C(F)(F)C(F)(F)C(F)(F)F = inactive
c1ccc(B(c2ccccc2)c2ccccc2)cc1 = inactive
O=C(Cl)C(F)(F)C(F)(F)C(F)(F)C(F)(F)C(F)(F)C(F)(F)C(F)(F)C(F)(F)F = inactive

// query Report outcome for `FC(F)(F)C(F)(F)C(F)(F)C(F)(F)CCI` please.
// result inactive

* * *

# targetOfAssay: Hypoxia-inducible factor 1-alpha (Homo sapiens) (UniProt Q16665)
# Sequence (Q16665 whole entry, looked up): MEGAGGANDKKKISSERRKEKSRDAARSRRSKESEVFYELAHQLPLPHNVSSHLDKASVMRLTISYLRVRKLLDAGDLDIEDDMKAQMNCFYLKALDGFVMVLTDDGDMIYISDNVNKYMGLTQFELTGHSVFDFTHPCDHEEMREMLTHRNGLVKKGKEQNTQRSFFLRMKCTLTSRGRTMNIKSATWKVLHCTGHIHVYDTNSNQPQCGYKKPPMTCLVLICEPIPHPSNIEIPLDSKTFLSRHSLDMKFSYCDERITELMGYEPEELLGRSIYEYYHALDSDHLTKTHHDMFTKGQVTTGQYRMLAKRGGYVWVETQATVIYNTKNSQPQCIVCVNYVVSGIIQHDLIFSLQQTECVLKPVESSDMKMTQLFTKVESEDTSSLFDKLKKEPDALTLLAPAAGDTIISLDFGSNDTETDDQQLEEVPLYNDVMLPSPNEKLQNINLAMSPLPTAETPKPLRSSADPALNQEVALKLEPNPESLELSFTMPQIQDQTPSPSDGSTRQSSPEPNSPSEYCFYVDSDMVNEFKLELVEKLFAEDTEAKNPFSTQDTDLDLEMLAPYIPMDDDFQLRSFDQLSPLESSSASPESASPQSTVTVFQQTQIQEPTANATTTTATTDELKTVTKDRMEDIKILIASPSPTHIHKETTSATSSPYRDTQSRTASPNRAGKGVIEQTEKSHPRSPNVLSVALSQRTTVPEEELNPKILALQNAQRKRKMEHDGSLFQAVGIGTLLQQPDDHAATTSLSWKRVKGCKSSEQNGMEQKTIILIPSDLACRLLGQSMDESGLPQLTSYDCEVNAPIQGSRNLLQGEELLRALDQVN
# assayProcedure: ATG_HIF1a_CIS: Attagene CIS-FACTORIAL HepG2 Assay for human Hypoxia Inducible Factor 1 (HIF1A) (AID 2282951)
# conditionDetails: HepG2 Attagene cis-factorial HIF1a reporter transcription; actives raise or lower the signal
# Description: ATG_CIS is a cell-based, multiplexed-readout assay that uses HepG2, a human liver cell line, with measurements taken at 24 hours after chemical dosing in a 24-well plate.ATG_HIF1a_CIS is one of 52 assay component(s) measured or calculated from the ATG_CIS assay. […] This assay endpoint, ATG_HIF1a_CIS, was analyzed with bidirectional fitting relative to DMSO as the negative control and baseline of activity. […]
Calls of active or inactive are those of the source. The calls were made as follows: active = hit-call score of the fitted dose curve at least 0.9, where 1 is the maximum; inactive = score below 0.9.
measuredParameter: AC50

In the examples that follow, each entry is paired with its recorded AC50.
C(=C(c1ccccc1)c1ccccc1)c1ccccc1 = inactive
OCC(F)(F)C(F)(F)C(F)(F)C(F)F = inactive
CC(Cc1ccc(O)c(O)c1)C(C)Cc1ccc(O)c(O)c1 (stereo unspecified) = 8.95 µM (active)
CCCCCCCOC(=O)c1ccccc1C(=O)OCCCCCCC = inactive
C#C[C@]1(O)CC[C@H]2[C@@H]3CCc4cc(OC)ccc4[C@H]3CC[C@@]21C = inactive

// query Name the recorded AC50 for `O=C(CC(=O)C(F)(F)C(F)(F)F)C(F)(F)F` .
// result inactive

* * *

# Read-out: Collagen I, COL1A1 (gene 1277)
# assayProcedure: BSK_MyoF_CollagenI: BioMAP Diversity Plus: MyoF Assay for Collagen I Biomarker Activity (AID 2284238)
# conditionDetails: primary human lung fibroblasts
Active and inactive are the calls of the source. The calls were made as follows: active = hit-call score of the fitted dose curve at least 0.9, where 1 is the maximum; inactive = score below 0.9.
measuredParameter: AC50

Examples with their reported AC50 follow.
O[Si](c1ccccc1)(c1ccccc1)c1ccccc1 = 31.3 µM (active)
OCC(F)(F)C(F)(F)C(F)(F)F = inactive
FC(F)(F)C(F)(F)C(F)(F)C(F)(F)C(F)(F)C(F)(F)CC1CO1 (configuration not stated) = inactive
O=S(=O)(OCC(F)F)C(F)(F)F = inactive

// query Give the measured AC50 of `CCc1ccc(C(c2ccc(CC)cc2)C(Cl)Cl)cc1` .
// result 9.01 µM (active)

// query Request the reported AC50 associated with `CCCCNc1ccccc1`
// result inactive

// query Any idea what its AC50 is? The molecule is `OCC(F)(F)C(F)(F)C(F)(F)C(F)F`
// result inactive

// query Entry under review: `FC(F)(F)C(F)(F)C(F)(F)C(F)(F)CCI` . Reported AC50?
// result inactive

// query AC50 value for entry `CS(C)(=O)=O`
// result inactive

// query Please look up its AC50: `CCCCCCCCCCCCCCCC[N+](C)(C)Cc1ccccc1`
// result 0.987 µM (active)

// query Consider the molecule `C=C(C)C(=O)OCC(F)(F)C(F)(F)C(F)(F)C(F)(F)C(F)(F)C(F)(F)C(F)(F)F` and give its measured AC50.
// result inactive

// query So what does the record say about AC50 for `O=C(O)C(F)(F)C(F)(F)C(F)F` ?
// result inactive

* * *

# assayProcedure: BSK_3C_uPAR: BioMAP Diversity Plus: 3C Assay for Urokinase-type plasminogen activator receptor (uPAR) Biomarker Activity (AID 2282998)
# conditionDetails: BioMAP 3C HUVEC, uPAR biomarker ELISA; actives raise or lower the signal
# Protocol: BSK_3C is a cell-based, multiplexed-readout assay that uses umbilical vein endothelium, a human vascular primary cell, with measurements taken at 24 hours after chemical dosing in a 96-well plate.BSK_3CAR is an assay component measured in the BSK_3C assay. It measures uPAR antibody related to regulation of gene expression using ELISA technology.Data from the assay component BSK_3CAR was analyzed into 1 assay endpoint. […]
Calls of active or inactive are those of the source. The calls were made as follows: active = hit-call score of the fitted dose curve at least 0.9, where 1 is the maximum; inactive = score below 0.9.
Entry note: the call must match one of 1 (yes) (active), 0 (no) (inactive)

These solved cases illustrate the format of a correct answer.
FC(F)(F)C(F)(F)C(F)(F)C(F)(F)CCI = 0 (no)
O=C(O)C(F)(F)C(F)(F)C(F)(F)C(F)(F)F = 0 (no)
CO[Si](OC)(c1ccccc1)c1ccccc1 = 1 (yes)
C=CC(F)(F)C(F)(F)C(F)(F)C(F)(F)C(F)(F)C(F)(F)C(F)(F)C(F)(F)F = 0 (no)
OCC(F)(F)C(F)(F)C(F)(F)C(F)(F)C(F)(F)C(F)(F)F = 0 (no)
FC(F)(F)C(F)(F)C(F)(F)N(C(F)(F)C(F)(F)C(F)(F)F)C(F)(F)C(F)(F)C(F)(F)F = 0 (no)

// query Hello, I am checking results. What call was entered for `O=C(O)C(F)(F)C(F)(F)C(F)(F)C(F)(F)C(F)(F)C(F)(F)C(F)(F)C(F)(F)C(F)(F)C(F)F` ?
// result 0 (no)

// query I would be grateful if you could indicate the recorded call for FC(F)(F)C(F)(F)C(F)(F)C(F)(F)C(F)(F)C(F)(F)CC1CO1 (stereo unspecified) .
// result 0 (no)

// query Recorded test outcome, item `O=C(O)C(F)(F)C(F)(F)C(F)F`
// result 0 (no)

// query What did this assay record as the result for `FC(F)(F)C(F)(F)C(F)(F)C(F)(F)C(F)(F)C(F)(F)CCS` ?
// result 0 (no)

// query Recorded call for `FC(F)(F)C(F)(F)CNCC(F)(F)C(F)(F)F` ?
// result 0 (no)

* * *

# Read-out: Low-density lipoprotein receptor (LDLR), LDLR (gene 3949)
# assayProcedure: BSK_CASM3C_LDLR: BioMAP Diversity Plus: CASM3C Assay for Low-density lipoprotein receptor (LDLR) Biomarker Activity (AID 2283045);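 also: LDLR protein level on the cell surface quantified by ELISA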
# conditionDetails: primary human coronary artery smooth muscle cells; actives raise or lower the signal
Active and inactive are the calls of the source. How the source made its calls: active means hit-call score of the fitted dose curve at least 0.9, where 1 is the maximum; inactive means score below 0.9.
# valid calls are T for active, F for inactive; nothing else

Here's what some known entries look like.
CS(C)(=O)=O = F
O=C(O)C(F)(F)C(F)(F)OC(F)(F)F = F
FC(F)(F)C(F)(F)C(F)(F)C(F)(F)CCI = F

// query Recorded test outcome, item FC1CC(F)(F)C(F)(F)C1(F)F (stereo not drawn)
// result F

// query Look up the recorded call for CC(CCl)OP(=O)(OC(C)CCl)OC(C)CCl (stereo not drawn) in this test.
// result F

// query Write down the call the test reported for this compound. Item: O=C(O)C(F)(OC(F)(F)C(F)(OC(F)(F)C(F)(F)C(F)(F)F)C(F)(F)F)C(F)(F)F (stereo not drawn)
// result F

// query Which outcome was assigned to `O=S(=O)(O)C(F)(F)C(F)(F)C(F)(F)C(F)(F)C(F)(F)C(F)(F)C(F)(F)F` in this test?
// result F

// query # lookup: test call for `O=C(O)C(F)(F)C(F)(F)C(F)(F)C(F)(F)C(F)(F)C(F)(F)C(F)(F)C(F)(F)C(F)(F)C(F)(F)C(F)(F)C(F)(F)C(F)(F)F`
// result F

* * *

# Read-out: Vascular cell adhesion molecule 1 (VCAM1), VCAM1 (gene 7412)
# assayProcedure: BSK_CASM3C_VCAM1: BioMAP Diversity Plus: CASM3C Assay for Vascular cell adhesion molecule 1 (VCAM1) Biomarker Activity (AID 2283055);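 also: VCAM-1 protein level quantified by ELISA on the cells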
# conditionDetails: primary human coronary artery smooth muscle cells; actives raise or lower the signal
The source made the active and inactive calls. Rule for the calls: active = hit-call score of the fitted dose curve at least 0.9, where 1 is the maximum; inactive = score below 0.9.
measuredParameter: outcome

OCC(F)(F)C(F)(F)C(F)(F)C(F)F = inactive
O=C(CC(=O)C(F)(F)C(F)(F)F)C(F)(F)F = inactive
O=C(O)C(F)(F)C(F)(F)C(F)(F)C(F)(F)C(F)(F)C(F)(F)C(F)(F)C(F)(F)C(F)(F)C(F)F = inactive
OCCCC(F)(F)C(F)(F)C(F)(F)F = inactive
